// values below are reported IC50
Biological target: T1, recombinant human CTLA4 protein with human IgG1 Fc tag at the C-terminus (Acro biosystems, Cat#CT4-H5255) (human, UniProt P16410 37-162)
T1 construct: bought protein; also called human CTLA4-Fc; CTLA4-Fc; not shown: human IgG1 Fc tag at the C-terminus
T1 sequence (looked up): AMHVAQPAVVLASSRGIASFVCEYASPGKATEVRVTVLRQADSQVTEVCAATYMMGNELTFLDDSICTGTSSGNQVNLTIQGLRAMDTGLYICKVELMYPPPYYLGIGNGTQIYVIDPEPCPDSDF
Assay: competitive ELISA: antibody pre-mixed with biotin human CTLA4-Fc, added to plate coated with the benchmark; competitor: coated Yervoy
Report the value in nM with no unit label.

# annotated cases, reported IC50 shown
Sample mouse anti-CTLA4 monoclonal antibody D1D5 (antibody, V domains shown, mouse mAb purified from hybridoma supernatant) VH: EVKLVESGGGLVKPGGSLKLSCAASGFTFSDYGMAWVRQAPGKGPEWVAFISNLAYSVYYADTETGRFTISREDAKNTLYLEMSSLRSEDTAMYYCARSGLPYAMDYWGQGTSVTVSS VL: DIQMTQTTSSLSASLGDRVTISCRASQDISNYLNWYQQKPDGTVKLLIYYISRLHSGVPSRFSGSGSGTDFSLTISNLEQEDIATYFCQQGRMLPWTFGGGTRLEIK ; IC50 observed: 5.75

Lab note: measured IC50 of chimeric C1D1 anti-CTLA4 antibody (antibody, human IgG4 S228P, kappa, V domains shown, mouse variable domains on human IgG4/kappa, made in 293F cells) VH: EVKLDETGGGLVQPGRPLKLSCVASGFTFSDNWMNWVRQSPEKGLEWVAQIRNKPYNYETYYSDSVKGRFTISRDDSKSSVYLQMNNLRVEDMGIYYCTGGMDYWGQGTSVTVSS VL: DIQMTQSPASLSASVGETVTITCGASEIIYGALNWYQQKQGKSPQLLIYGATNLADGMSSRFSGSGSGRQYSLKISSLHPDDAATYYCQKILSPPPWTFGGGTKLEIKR was 2.11

Here's the next entry for you.
Query mouse anti-CTLA4 monoclonal antibody C1D1 (antibody, V domains shown, mouse mAb purified from hybridoma supernatant) VH: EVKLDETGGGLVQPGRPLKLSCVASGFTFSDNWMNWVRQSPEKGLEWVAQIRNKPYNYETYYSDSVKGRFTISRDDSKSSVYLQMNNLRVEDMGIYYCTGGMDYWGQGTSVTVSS VL: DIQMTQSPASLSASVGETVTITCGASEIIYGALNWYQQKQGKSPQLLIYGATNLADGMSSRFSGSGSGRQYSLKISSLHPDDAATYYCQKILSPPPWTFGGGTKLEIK yields IC50 of 0.8
